target: Sirt6 (Homo sapiens, UniProt Q8N6T7); construct: purchased CycLex CY-1156V2; assay: Measurement of Sirt6 Activity (CycLex Sirt6 Deacetylase Fluorometric Assay Kit); format: biochemical; details: compound at 10 μM; fluorescence relative to the group without compound treatment (positive control group)
Sequence (Q8N6T7 whole entry): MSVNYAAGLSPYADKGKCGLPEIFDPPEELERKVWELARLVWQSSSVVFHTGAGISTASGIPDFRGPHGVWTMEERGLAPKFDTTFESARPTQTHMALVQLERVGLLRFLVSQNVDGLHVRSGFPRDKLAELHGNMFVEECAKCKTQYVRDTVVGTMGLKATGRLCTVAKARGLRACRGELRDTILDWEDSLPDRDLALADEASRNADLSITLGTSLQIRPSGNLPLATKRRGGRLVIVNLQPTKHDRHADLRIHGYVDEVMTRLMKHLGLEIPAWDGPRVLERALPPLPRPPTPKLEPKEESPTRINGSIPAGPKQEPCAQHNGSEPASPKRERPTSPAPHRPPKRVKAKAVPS
Entries and their measured Sirt6 Activity (% activity, 10 μM) follow.
Express it in % activity; write the number only.

Below are worked cases with known answers.
- COMPOUND: "CCS(=O)(=O)N1CC=C(c2nn(-c3ccc(F)cc3F)c(=O)c3ccccc23)CC1 [Example 218]"
  UNIT_LABEL: "% activity"
  QUANTITATIVE_READOUT: 176.50
- COMPOUND: "CS(=O)(=O)c1cccc(-c2nn(-c3ccc(F)cc3F)c(=O)c3cc(F)ccc23)c1 [Example 120]"
  UNIT_LABEL: "% activity"
  QUANTITATIVE_READOUT: 178
- COMPOUND: "Cl.NC1CCCCN(c2nn(C3CCCCC3)c(=O)c3ccccc23)C1 (centres unmarked) [Example 143]"
  UNIT_LABEL: "% activity"
  QUANTITATIVE_READOUT: 238.3
- COMPOUND: "CC(C)/[N+]([O-])=C/c1ccccc1-c1nn(-c2ccc(F)cc2)c(=O)c2ccccc12 [Example 41]"
  UNIT_LABEL: "% activity"
  QUANTITATIVE_READOUT: 129

Lab note: measured Sirt6 Activity (% activity, 10 μM) of CNS(=O)(=O)c1cccc(-c2nn(-c3ccccc3)c(=O)c3ccc(F)cc23)c1 [Example 111] was 126

Looking up NS(=O)(=O)c1cccc(-c2nn(-c3ccc(F)cc3F)c(=O)c3ccccc23)c1 [Example 126] , I see its Sirt6 Activity (% activity, 10 μM) listed as 185

Record summary for CS(=O)(=O)Nc1cccc(-c2nn(-c3ccccc3)c(=O)c3ccccc23)c1 [Example 6] : reported Sirt6 Activity (% activity, 10 μM) = 102

Just so you know, measured Sirt6 Activity (% activity, 10 μM) for CC(C)(C(=O)O)c1cccc(-c2nn(-c3ccc(Cl)cc3)c(=O)c3ccccc23)c1 [Example 194] came out at 350.20

For Cl.NC1CCCCN(c2nn(C3CCCC3)c(=O)c3ccccc23)C1 (centres unmarked) [Example 173] the compound record lists Sirt6 Activity (% activity, 10 μM) as 112.2

So, CC(C)(C(=O)N1CCCC1)c1cccc(-c2nn(-c3ccc(F)cc3F)c(=O)c3ccccc23)c1 [Example 177] ? Its Sirt6 Activity (% activity, 10 μM) was 241.6

The recorded Sirt6 Activity (% activity, 10 μM) for O=C(NOC1CCCCO1)c1cccc(-c2nn(-c3ccc(F)cc3)c(=O)c3ccccc23)c1 (centres unmarked) [Example 79] is 167

Data point: Cl.NC1CCCCN(c2nn(C3CCC3)c(=O)c3ccccc23)C1 (centres unmarked) [Example 172] ; Sirt6 Activity (% activity, 10 μM) = 99.5

Given item C/[N+]([O-])=C/c1cc(-c2nn(-c3ccc(F)cc3)c(=O)c3ccccc23)ccc1F [Example 51] , the value recorded as its Sirt6 Activity (% activity, 10 μM) is 139
